# system-tested: HAUSP TRAF domain (HAUSP^62-205) (human), Q93009
# Sequence (Q93009 62-205): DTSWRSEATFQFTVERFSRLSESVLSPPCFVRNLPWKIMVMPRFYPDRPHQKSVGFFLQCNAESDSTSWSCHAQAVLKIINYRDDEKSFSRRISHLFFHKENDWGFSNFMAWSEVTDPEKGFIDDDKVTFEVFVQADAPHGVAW
# assay-remarks: ITC, titration against the HAUSP TRAF domain, 20 C
pKd: −log10 of the molar value.
observation-type: pKd

| binder | reported |
| --- | --- |
| EQGPADDPGEGPSTG (modifications not checked) [EBNA1^435-449 peptide] | 6.32 |

Value source: patent US20180201654A1
